// inhibition lookup, one value per entry
# Test target: Sodium/glucose cotransporter 1 (Homo sapiens) (UniProt P13866)
# Sequence (whole entry): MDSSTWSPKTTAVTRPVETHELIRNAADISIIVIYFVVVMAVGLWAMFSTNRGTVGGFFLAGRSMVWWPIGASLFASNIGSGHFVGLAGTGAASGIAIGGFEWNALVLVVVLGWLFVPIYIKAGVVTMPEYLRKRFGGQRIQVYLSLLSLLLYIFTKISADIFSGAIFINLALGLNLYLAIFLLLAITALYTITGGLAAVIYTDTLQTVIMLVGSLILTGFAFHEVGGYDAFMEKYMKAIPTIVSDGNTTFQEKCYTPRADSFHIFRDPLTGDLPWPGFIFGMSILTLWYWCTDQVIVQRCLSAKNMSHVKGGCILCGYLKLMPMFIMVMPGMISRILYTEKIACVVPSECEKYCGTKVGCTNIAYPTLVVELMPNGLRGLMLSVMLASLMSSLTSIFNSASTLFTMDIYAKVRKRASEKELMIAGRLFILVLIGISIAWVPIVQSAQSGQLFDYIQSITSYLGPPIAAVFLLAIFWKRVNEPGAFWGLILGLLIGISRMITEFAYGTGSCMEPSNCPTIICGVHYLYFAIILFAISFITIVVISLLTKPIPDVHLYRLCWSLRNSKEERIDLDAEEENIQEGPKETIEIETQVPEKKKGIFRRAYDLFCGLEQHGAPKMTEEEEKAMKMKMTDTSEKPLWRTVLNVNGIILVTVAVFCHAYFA
# Assay name: Inhibition of alpha-D-[U-14C]glucopyranoside uptake at human SGLT1 expressed in african green monkey COS1 cells at 50 uM after 30 mins by liquid scintillation counting
# Assay type: cell-based
# Assay setup: COS-1

Compound: C/C=C1/CN2[C@@H]3C[C@@]45c6ccccc6N[C@]4(O3)[C@@H]2C[C@@H]1[C@@]5(C=O)C(=O)OC
Test target: Sodium/glucose cotransporter 1 (Homo sapiens) (UniProt P13866)
Endpoint unit: %
inhibition: 16.5

Compound: C/C=C1\CN2[C@@H]3C[C@@]45c6ccccc6N[C@]4(O3)[C@@H]2C[C@@H]1[C@@]5(COC(=O)c1cc(OC)c(OC)c(OC)c1)C(=O)OC
Test target: Sodium/glucose cotransporter 1 (Homo sapiens) (UniProt P13866)
Endpoint unit: %
inhibition: 53

Compound: C/C=C1/CN2[C@@H]3C[C@@]45c6cc(O)ccc6N(C)[C@]4(O3)[C@@H]2C[C@@H]1[C@@]5(COC(=O)c1cc(O)c(O)c(O)c1)C(=O)OC
Test target: Sodium/glucose cotransporter 1 (Homo sapiens) (UniProt P13866)
Endpoint unit: %
inhibition: 46.9

Compound: CC(=O)C1=COC[C@H]2[C@@H]3C[C@@]4(C(=O)N(C)c5ccccc54)[C@H](C[C@@H]12)N3
Test target: Sodium/glucose cotransporter 1 (Homo sapiens) (UniProt P13866)
Endpoint unit: %
inhibition: 15.8

Compound: C/C=C1/CN2[C@@H]3C[C@@]45c6cc(OC)ccc6N(C)[C@]4(O3)[C@@H]2C[C@@H]1[C@@]5(COCc1ccccc1)C(=O)OC
Test target: Sodium/glucose cotransporter 1 (Homo sapiens) (UniProt P13866)
Endpoint unit: %
inhibition: 7.6

Compound: C/C=C1/CN2[C@@H]3C[C@@]45c6ccccc6N[C@]4(O3)[C@@H]2C[C@@H]1[C@@]5(CO)C(=O)OC
Test target: Sodium/glucose cotransporter 1 (Homo sapiens) (UniProt P13866)
Endpoint unit: %
inhibition: 10.1

Compound: C/C=C1/CN2[C@@H]3C[C@@]45c6cc(OC)ccc6N(C)[C@]4(O3)[C@@H]2C[C@@H]1[C@@]5(COC(=O)c1cc(OC)c(OC)c(OC)c1)C(=O)OC
Test target: Sodium/glucose cotransporter 1 (Homo sapiens) (UniProt P13866)
Endpoint unit: %
inhibition: 89.9

Compound: C/C=C1/CN2[C@@H]3C[C@@]45c6ccccc6N[C@]4(O3)[C@@H]2C[C@@H]1[C@@]5(COC(=O)c1ccc(OC)c(OC)c1)C(=O)OC
Test target: Sodium/glucose cotransporter 1 (Homo sapiens) (UniProt P13866)
Endpoint unit: %
inhibition: 60.3

Compound: C/C=C1\CN2[C@H]3C[C@@]45c6ccccc6N(C)[C@@H]4[C@@H]2C[C@@H]1[C@@]3(C(=O)OC)C5OC(=O)c1cc(OC)c(OC)c(OC)c1 (stereo partly drawn)
Test target: Sodium/glucose cotransporter 1 (Homo sapiens) (UniProt P13866)
Endpoint unit: %
inhibition: 7.2

Compound: C/C=C1/CN2[C@@H]3C[C@@]45c6cc(OC)ccc6N(C)[C@]4(O3)[C@@H]2C[C@@H]1[C@@]5(COC(=O)CC)C(=O)OC
Test target: Sodium/glucose cotransporter 1 (Homo sapiens) (UniProt P13866)
Endpoint unit: %
inhibition: 27.1

Compound: CC(=O)C1=COC[C@@H]2[C@H]1C[C@H]1c3c(c4ccccc4n3C)C[C@@H]2N1C
Test target: Sodium/glucose cotransporter 1 (Homo sapiens) (UniProt P13866)
Endpoint unit: %
inhibition: 20.7

Compound: C/C=C1/CN2[C@@H]3C[C@@]45c6cc(OC)ccc6N(C)[C@]4(O3)[C@@H]2C[C@@H]1[C@@]5(COC(=O)c1ccccc1)C(=O)OC
Test target: Sodium/glucose cotransporter 1 (Homo sapiens) (UniProt P13866)
Endpoint unit: %
inhibition: 85.2

Compound: C/C=C1/C[N+]2([O-])[C@@H]3C[C@@]45c6cc(OC)ccc6N(C)[C@]4(O3)[C@@H]2C[C@@H]1[C@@]5(COC(=O)c1ccc(OC)c(OC)c1)C(=O)OC (stereo partly drawn)
Test target: Sodium/glucose cotransporter 1 (Homo sapiens) (UniProt P13866)
Endpoint unit: %
inhibition: 94.6

----------
# Test target: Sodium/glucose cotransporter 1 (Homo sapiens) (UniProt P13866)
# Assay name: Inhibition of alpha-D-[U-14C]glucopyranoside uptake at human SGLT1 expressed in african green monkey COS1 cells at 50 uM after 30 mins by liquid scintillation counting
# Format: cell-based
# Assay setup: COS-1
// reported inhibition per item

Molecule: C/C=C1/CN2[C@@H]3C[C@@]45c6cc(OC)ccc6N(C)[C@]4(O3)[C@@H]2C[C@@H]1[C@@]5(COC(=O)c1ccc(OC)c(OC)c1)C(=O)OC
Test target: Sodium/glucose cotransporter 1 (Homo sapiens) (UniProt P13866)
inhibition (%): 95.8
//
Molecule: C/C=C1\CN2[C@H]3C[C@@]45c6ccccc6N(C)[C@@H]4[C@@H]2C[C@@H]1[C@@]3(C(=O)OC)C5O (stereo partly drawn)
Test target: Sodium/glucose cotransporter 1 (Homo sapiens) (UniProt P13866)
inhibition (%): 11.5
//
Molecule: C/C=C1/CN2[C@@H]3C[C@@]45c6ccccc6N[C@]4(O3)[C@@H]2C[C@@H]1[C@H]5C(=O)OC
Test target: Sodium/glucose cotransporter 1 (Homo sapiens) (UniProt P13866)
inhibition (%): 9.6
//
Molecule: C/C=C1/CN2[C@@H]3C[C@@]45c6cc(OC)ccc6N(C)[C@]4(O3)[C@@H]2C[C@@H]1[C@@]5(CO)C(=O)OC
Test target: Sodium/glucose cotransporter 1 (Homo sapiens) (UniProt P13866)
inhibition (%): 14
//
Molecule: C/C=C1/CN2[C@@H]3C[C@@]45c6cc(OC)c(OC)cc6N[C@]4(O3)[C@@H]2C[C@@H]1[C@H]5C(=O)OC
Test target: Sodium/glucose cotransporter 1 (Homo sapiens) (UniProt P13866)
inhibition (%): 11.7
//
Molecule: C/C=C1\CN2[C@H]3C[C@@]45c6ccccc6N(C)[C@@H]4[C@@H]2C[C@@H]1[C@@]3(C(=O)OC)C5OC(C)=O (stereo partly drawn)
Test target: Sodium/glucose cotransporter 1 (Homo sapiens) (UniProt P13866)
inhibition (%): 22
//
Molecule: C/C=C1\CN2[C@H]3C[C@@]45c6ccccc6N(C)[C@@H]4[C@@H]2C[C@@H]1[C@@]3(C(=O)OC)C5OC(=O)c1ccc(OC)c(OC)c1 (stereo partly drawn)
Test target: Sodium/glucose cotransporter 1 (Homo sapiens) (UniProt P13866)
inhibition (%): 26
//
Molecule: C/C=C1/CN2[C@@H]3C[C@@]45c6cc(OC)ccc6N[C@]4(O3)[C@@H]2C[C@@H]1[C@@]5(COC(=O)c1cc(OC)c(OC)c(OC)c1)C(=O)OC
Test target: Sodium/glucose cotransporter 1 (Homo sapiens) (UniProt P13866)
inhibition (%): 65.2

----------
The reader will find reported inhibition values listed item by item below.
# Test target: Sodium/glucose cotransporter 2 (Homo sapiens) (UniProt P31639)
# Sequence (P31639 whole entry): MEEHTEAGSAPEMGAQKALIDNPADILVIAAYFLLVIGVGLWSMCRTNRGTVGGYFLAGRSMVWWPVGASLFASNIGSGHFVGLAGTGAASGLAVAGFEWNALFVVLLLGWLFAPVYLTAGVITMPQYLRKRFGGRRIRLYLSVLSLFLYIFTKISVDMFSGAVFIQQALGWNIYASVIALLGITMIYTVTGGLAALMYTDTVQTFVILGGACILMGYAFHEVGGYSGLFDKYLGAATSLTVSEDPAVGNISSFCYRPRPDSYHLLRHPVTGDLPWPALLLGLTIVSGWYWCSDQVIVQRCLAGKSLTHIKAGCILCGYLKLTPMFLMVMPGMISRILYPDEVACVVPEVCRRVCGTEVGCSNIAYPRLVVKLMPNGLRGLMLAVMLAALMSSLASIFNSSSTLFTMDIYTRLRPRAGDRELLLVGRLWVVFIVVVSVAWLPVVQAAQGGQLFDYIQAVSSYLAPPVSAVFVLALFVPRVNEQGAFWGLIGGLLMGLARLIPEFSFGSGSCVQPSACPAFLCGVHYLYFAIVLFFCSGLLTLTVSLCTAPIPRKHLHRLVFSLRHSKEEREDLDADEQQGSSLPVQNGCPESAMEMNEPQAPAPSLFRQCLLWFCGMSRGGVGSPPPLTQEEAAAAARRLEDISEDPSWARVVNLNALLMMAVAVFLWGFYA
# Assay name: Inhibition of alpha-D-[U-14C]glucopyranoside uptake at human SGLT2 expressed in african green monkey COS1 cells at 50 uM after 30 mins by liquid scintillation counting
# Type: cell-based
# Assay setup: COS-1

Molecule: C/C=C1/CN2[C@@H]3C[C@@]45c6cc(OC)ccc6N(C)[C@]4(O3)[C@@H]2C[C@@H]1[C@@]5(COCc1ccccc1)C(=O)OC
inhibition / %: 25.7
//
Molecule: C/C=C1\CN2[C@H]3C[C@@]45c6ccccc6N(C)[C@@H]4[C@@H]2C[C@@H]1[C@@]3(C(=O)OC)C5OC(C)=O (some centres not stated)
inhibition / %: 47.4
//
Molecule: C/C=C1\C[N+]2([O-])[C@H]3C[C@@H]1[C@]1(C(=O)OC)[C@@H](OC(C)=O)[C@]4(C[C@@H]12)c1ccccc1N(C)[C@H]34
inhibition / %: 38.5
//
Molecule: C/C=C1/CN2[C@@H]3C[C@@]45c6cc(OC)ccc6N(C)[C@]4(O3)[C@@H]2C[C@@H]1[C@@]5(COC(=O)/C=C/c1ccccc1)C(=O)OC
inhibition / %: 103
//
Molecule: C/C=C1/CN2[C@@H]3C[C@@]45c6ccccc6N[C@]4(O3)[C@@H]2C[C@@H]1[C@@]5(C=O)C(=O)OC
inhibition / %: 36.3
//
Molecule: C/C=C1\CN2[C@H]3C[C@@]45c6ccccc6N(C)[C@@H]4[C@@H]2C[C@@H]1[C@@]3(C(=O)OC)C5OC(=O)c1ccc(OC)c(OC)c1 (some centres not stated)
inhibition / %: 44
//
Molecule: C/C=C1/CN2[C@@H]3C[C@@]45c6cc(OC)ccc6N(C)[C@]4(O3)[C@@H]2C[C@@H]1[C@@]5(COC(C)=O)C(=O)OC
inhibition / %: 39.9
